Measured values drawn from ChEMBL document CHEMBL3988442 for this set.

- assayed.system: Proteasome subunit beta (Trypanosoma cruzi) (UniProt O96673)
- Sequence (O96673 as listed by the source): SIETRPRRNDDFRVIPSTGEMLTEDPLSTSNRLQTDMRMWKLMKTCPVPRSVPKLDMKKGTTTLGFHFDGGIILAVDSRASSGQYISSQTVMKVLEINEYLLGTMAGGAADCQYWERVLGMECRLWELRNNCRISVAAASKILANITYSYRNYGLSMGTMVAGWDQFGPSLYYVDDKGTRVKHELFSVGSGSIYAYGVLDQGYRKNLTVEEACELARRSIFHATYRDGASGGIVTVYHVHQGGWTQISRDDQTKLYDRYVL
- method.description: Trypanosoma cruzi proteasome chymotrypsin-like activity (TcProtChymo) assay. Also: in the data most compounds retested in dose-response had high values.
- Assay type: functional
- Parameters: scale not given: direction of the effect not stated beside the values
- condition.parameters: 9.37 µM
Assignment: determine reported Percent Effect for the given compounds.
Give bare numbers, in %.

For each of the items listed, what is its Percent Effect?
1. CCn1cnnc1CNC(=O)N1CCN(c2cccs2)CC1
2. COCCO[C@@H]1CCN(C(=O)c2ccc(C)o2)[C@@H]1Cc1cnn(C)c1
3. CC(C)Nc1ncnc2c1CCN(C(=O)c1ccncc1F)CC2
4. Cc1cccc(-c2nc(CN3CCCCC3Cn3cncn3)no2)c1 (stereo not given)

Data returned:
[24.3, 7.69, 17.2, 2.34]

Data request: What does the data say about its Percent Effect? Entry: Cc1noc(C(C)C)c1C(=O)N1CCOCC1CC(=O)c1ccco1 (stereo not given)
Data returned: 7.38

###

- Tested on: Trypanosoma cruzi
- method.description: Trypanosoma cruzi phosphomannomutase and mannose-1-phosphate guanylyltransferase assay
- Assay type: functional
- Design: scale not given: direction of the effect not stated beside the values
- condition.parameters: 10 µM
measured.metric: Percent Effect (%)
One number for each entry, in %.

Completed entries (count: 5):
[
  {
    "compound": "Cc1nc(CCNC(=O)NC2CCN(c3ncccn3)CC2)cs1",
    "Percent Effect [%]": 1.19
  },
  {
    "compound": "Nc1nc2c(c(=O)[nH]1)CCN(C(=O)c1cccc3nccnc13)C2",
    "Percent Effect [%]": 2.46
  },
  {
    "compound": "COC(=O)c1ccc(N2CCN(C(=O)c3ccncc3)C(C)C2)cc1 (stereo unspecified)",
    "Percent Effect [%]": 4.63
  },
  {
    "compound": "Fc1cc(CNCc2ccc3c(c2)CCO3)ccc1N1CCOCC1",
    "Percent Effect [%]": 0
  },
  {
    "compound": "Cc1cnn(CC2CN(Cc3cccc(C(=O)N(C)C)c3)CCO2)c1 (stereo unspecified)",
    "Percent Effect [%]": 3.56
  }
]

Okay, next one:
Data request: What does the data say about its Percent Effect? Entry: `O=C(NCc1ccco1)[C@@H]1CCO[C@@H]2CCN(c3ccncn3)C[C@H]21`
Data returned: -5.02

###

- assayed.system: AMP-activated protein kinase, AMPK (Homo sapiens) (UniProt P54646+O43741+P54619+Q9UGJ0+Q9Y478+Q13131+Q9UGI9)
- method.description: AMP-dependent Kinase enzyme assay. An in vitro enzyme assay that detects ADP turnover that is directly proportional to AMPK activity. This uses naive AMPK that is activated during the assay with MK-8722
- Format: functional
- Parameters: scale not given: direction of the effect not stated beside the values
- condition.parameters: 30 µM
measured.metric: Percent Effect (%)
Give bare numbers, in %.

[
  {
    "compound": "CCN(C1CCS(=O)(=O)C1)S(=O)(=O)c1cccc2cc(C)cnc12 (centres undefined)",
    "measured.metric": "Percent Effect",
    "unit.info": "%",
    "observed.value": 5.96
  },
  {
    "compound": "Cc1nc(CN2CCCN(C(=O)C3(C#N)CCCCC3)CC2)cs1",
    "measured.metric": "Percent Effect",
    "unit.info": "%",
    "observed.value": -4.31
  },
  {
    "compound": "COc1cc(C(=O)N(CCC#N)Cc2ccccn2)cc(OC)c1C",
    "measured.metric": "Percent Effect",
    "unit.info": "%",
    "observed.value": -4.3
  },
  {
    "compound": "CCn1ccnc1CN1CCN(C(C)C(=O)N2CCC(C)CC2)CC1 (centres undefined)",
    "measured.metric": "Percent Effect",
    "unit.info": "%",
    "observed.value": -8.85
  },
  {
    "compound": "NCc1cnn(-c2ccccc2C(=O)NCCCn2ccnc2)c1",
    "measured.metric": "Percent Effect",
    "unit.info": "%",
    "observed.value": 9.61
  }
]

For each of the items listed, what is its Percent Effect?
1. Cc1nccc(CN2CCC(c3nnsc3S(C)(=O)=O)CC2)n1
2. CC(NC(=O)N1CCC(n2cncn2)CC1)c1ccc(F)cc1F (centres undefined)
3. O=C1CCSCC(C(=O)N2CCCC2)N1 (centres undefined)
4. Cc1cc(O)nc(C2CCCN(Cc3ccncc3)C2)n1 (centres undefined)

Data returned:
1. 5.68
2. -2.69
3. 2.29
4. 4.7
